The reported numbers originate from ChEMBL document CHEMBL1143865.

# Measurement Notes: Drug level in mouse plasma at 60 mg/kg, po after 90 mins
# Type: ADME, organism-based
# Design: dose 60 mg/kg, route oral
Assay Readout: concentration at 1.5 h (nM)

CC1CNC(=O)c2cc3ccc(C(=O)Nc4nc(C(=O)NC5CCN(CC(C)(C)C)CC5)cs4)cc3n21 (stereo unspecified)    690

---

# Measurement Notes: Inhibition of MAPKAP-K1
Assay Readout: IC50 (nM)

CC(C)(C)CN1CCC(NC(=O)c2csc(NC(=O)c3ccc4cc5n(c4c3)C3(CCC3)CNC5=O)n2)CC1    25

---

A short record of IC50 observed with MAP kinase-activated protein kinase 2 (Homo sapiens, UniProt P49137) follows.
Sequence (P49137 whole entry): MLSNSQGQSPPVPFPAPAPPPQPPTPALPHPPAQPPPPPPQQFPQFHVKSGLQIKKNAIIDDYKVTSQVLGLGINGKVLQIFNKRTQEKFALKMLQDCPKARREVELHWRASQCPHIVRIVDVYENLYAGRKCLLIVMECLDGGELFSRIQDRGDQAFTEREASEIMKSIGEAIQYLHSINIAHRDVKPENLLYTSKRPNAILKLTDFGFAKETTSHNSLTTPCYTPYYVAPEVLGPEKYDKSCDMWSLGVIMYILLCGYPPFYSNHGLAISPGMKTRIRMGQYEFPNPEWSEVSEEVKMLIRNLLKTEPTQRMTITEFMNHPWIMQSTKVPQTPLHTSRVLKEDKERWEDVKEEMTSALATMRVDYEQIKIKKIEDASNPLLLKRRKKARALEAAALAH
Assay Readout: IC50

CC1CNC(=O)c2cc3ccc(C(=O)Nc4nc(C(=O)NCC(C)(C)C)cs4)cc3n21 (stereo unspecified)    46 nM
CC1CNC(=O)c2cc3ccc(C(=O)Nc4nc(C(=O)NC5CCOCC5)cs4)cc3n21 (stereo unspecified)    12 nM
CC1CCC(NC(=O)c2csc(NC(=O)c3ccc4cc5n(c4c3)C(C)CNC5=O)n2)CC1 (stereo unspecified)    45 nM
CC1(C)CNC(=O)c2cc3ccc(C(=O)Nc4nc(C(=O)NC5CCCCC5)cs4)cc3n21    19 nM
CCN1CCC(NC(=O)c2csc(NC(=O)c3ccc4cc5n(c4c3)C(C)CNC5=O)n2)CC1 (stereo unspecified)    7 nM
CC1CNC(=O)c2cc3ccc(C(=O)Nc4nc(C(=O)NC5CCCCC5)cs4)cc3n21 (stereo unspecified)    20 nM

---

# Measurement Notes: Oral bioavailability in BALB/c mouse at 1.0 mg/kg
# Type: ADME, organism-based
# Experimental Parameters: in vivo
bioavailability for assorted compounds
Assay Readout: bioavailability (%)

CC1CNC(=O)c2cc3ccc(C(=O)Nc4nc(C(=O)NC5CCCCC5)cs4)cc3n21 (stereo not drawn)    11
CC1CNC(=O)c2[nH]c3ccc(C(=O)Nc4nc(C(=O)NC5CCCCC5)cs4)cc3c21 (stereo not drawn)    8

---

# Measured On: Mitogen-activated protein kinase kinase kinase 14 (Homo sapiens)
# Sequence (Q99558 whole entry): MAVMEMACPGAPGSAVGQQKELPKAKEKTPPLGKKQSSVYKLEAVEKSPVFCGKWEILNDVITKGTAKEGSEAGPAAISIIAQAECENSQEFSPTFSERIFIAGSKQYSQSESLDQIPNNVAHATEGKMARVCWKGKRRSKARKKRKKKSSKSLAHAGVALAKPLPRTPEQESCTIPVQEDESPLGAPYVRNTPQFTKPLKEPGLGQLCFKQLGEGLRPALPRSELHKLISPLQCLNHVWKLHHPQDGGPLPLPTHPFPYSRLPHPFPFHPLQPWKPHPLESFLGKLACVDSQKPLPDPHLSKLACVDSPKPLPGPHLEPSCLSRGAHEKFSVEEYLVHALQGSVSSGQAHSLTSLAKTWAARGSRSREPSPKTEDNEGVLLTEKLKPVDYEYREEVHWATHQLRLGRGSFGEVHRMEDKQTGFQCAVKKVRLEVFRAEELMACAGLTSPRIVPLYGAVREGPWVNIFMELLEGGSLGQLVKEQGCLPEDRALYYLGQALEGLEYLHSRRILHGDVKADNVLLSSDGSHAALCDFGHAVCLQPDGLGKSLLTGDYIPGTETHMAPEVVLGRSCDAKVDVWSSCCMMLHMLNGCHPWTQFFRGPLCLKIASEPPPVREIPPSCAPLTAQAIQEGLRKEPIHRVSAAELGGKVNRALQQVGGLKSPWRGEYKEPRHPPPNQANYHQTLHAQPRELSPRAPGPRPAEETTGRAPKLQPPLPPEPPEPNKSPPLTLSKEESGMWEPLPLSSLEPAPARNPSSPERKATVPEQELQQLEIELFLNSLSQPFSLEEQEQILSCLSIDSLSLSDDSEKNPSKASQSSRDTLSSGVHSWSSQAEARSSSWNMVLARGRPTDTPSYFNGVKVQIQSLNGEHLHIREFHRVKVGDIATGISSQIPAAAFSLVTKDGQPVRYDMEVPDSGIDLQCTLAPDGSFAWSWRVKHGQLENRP
# Measurement Notes: Inhibition of NIK
pIC50: −log10 of the molar value.
Assay Readout: pIC50

CC(C)(C)CN1CCC(NC(=O)c2csc(NC(=O)c3ccc4cc5n(c4c3)C3(CCC3)CNC5=O)n2)CC1    6.32

---

# Measured On: Dual specificity protein kinase CLK1 (Homo sapiens, UniProt P49759)
# Sequence (P49759 whole entry): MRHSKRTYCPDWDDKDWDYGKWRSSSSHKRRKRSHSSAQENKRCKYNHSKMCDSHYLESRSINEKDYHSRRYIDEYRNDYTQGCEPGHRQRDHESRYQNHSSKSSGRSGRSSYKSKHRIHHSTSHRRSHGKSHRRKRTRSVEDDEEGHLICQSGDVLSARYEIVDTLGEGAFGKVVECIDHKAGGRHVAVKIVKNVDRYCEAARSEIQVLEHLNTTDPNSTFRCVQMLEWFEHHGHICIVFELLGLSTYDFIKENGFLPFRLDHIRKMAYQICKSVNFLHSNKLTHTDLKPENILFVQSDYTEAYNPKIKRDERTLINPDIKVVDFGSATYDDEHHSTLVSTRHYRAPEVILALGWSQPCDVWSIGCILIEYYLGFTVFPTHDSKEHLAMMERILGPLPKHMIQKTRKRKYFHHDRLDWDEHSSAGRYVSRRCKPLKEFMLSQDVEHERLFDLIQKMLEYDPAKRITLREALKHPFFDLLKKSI
Assay Readout: IC50 (nM)

CC(C)(C)CN1CCC(NC(=O)c2csc(NC(=O)c3ccc4cc5n(c4c3)C3(CCC3)CNC5=O)n2)CC1    93

---

# Measurement Notes: AUC (0 to infinity) in BALB/c mouse at 0.5 mg/kg, iv
# Type: ADME, organism-based
# Design: time infinity, dose 0.5 mg/kg, route intravenous
# Experimental Parameters: plasma
Assay Readout: AUC(0-inf) (ng·h/mL)

CC1CNC(=O)c2[nH]c3ccc(C(=O)Nc4nc(C(=O)NC5CCCCC5)cs4)cc3c21 (stereo not drawn)    525
CC1CNC(=O)c2cc3ccc(C(=O)Nc4nc(C(=O)NC5CCCCC5)cs4)cc3n21 (stereo not drawn)    535
CC(C)(C)CN1CCC(NC(=O)c2csc(NC(=O)c3ccc4cc5n(c4c3)C3(CCC3)CNC5=O)n2)CC1    165

---

Listed next: entries and their corresponding solubility.
# Measurement Notes: Solubility at pH 7.4
# Format: physicochemical
# Experimental Parameters: buffer
Assay Readout: solubility

CC1CNC(=O)c2cc3ccc(C(=O)Nc4nc(C(=O)NC5CCN(Cc6ccccc6)CC5)cs4)cc3n21 (configuration not stated)    > 30 µg/mL
CC1CNC(=O)c2[nH]c3ccc(C(=O)Nc4nc(C(=O)NC5CCCCC5)cs4)cc3c21 (configuration not stated)    < 0.1 µg/mL
CC(C)CN1CCC(NC(=O)c2csc(NC(=O)c3ccc4cc5n(c4c3)C(C)CNC5=O)n2)CC1 (configuration not stated)    > 30 µg/mL
CC1CNC(=O)c2cc3ccc(C(=O)Nc4nc(C(=O)NC5CCCCC5)cs4)cc3n21 (configuration not stated)    < 0.1 µg/mL
CCN1CCC(NC(=O)c2csc(NC(=O)c3ccc4cc5n(c4c3)C(C)CNC5=O)n2)CC1 (configuration not stated)    > 30 µg/mL
CC1CNC(=O)c2cc3ccc(C(=O)Nc4nc(C(=O)NC5CCN(CC(C)(C)C)CC5)cs4)cc3n21 (configuration not stated)    > 30 µg/mL
CC(C)(C)CN1CCC(NC(=O)c2csc(NC(=O)c3ccc4cc5n(c4c3)C3(CCC3)CNC5=O)n2)CC1    > 96 µg/mL

---

# Measured On: Mitogen-activated protein kinase 1 (Homo sapiens)
# Sequence (P28482 whole entry): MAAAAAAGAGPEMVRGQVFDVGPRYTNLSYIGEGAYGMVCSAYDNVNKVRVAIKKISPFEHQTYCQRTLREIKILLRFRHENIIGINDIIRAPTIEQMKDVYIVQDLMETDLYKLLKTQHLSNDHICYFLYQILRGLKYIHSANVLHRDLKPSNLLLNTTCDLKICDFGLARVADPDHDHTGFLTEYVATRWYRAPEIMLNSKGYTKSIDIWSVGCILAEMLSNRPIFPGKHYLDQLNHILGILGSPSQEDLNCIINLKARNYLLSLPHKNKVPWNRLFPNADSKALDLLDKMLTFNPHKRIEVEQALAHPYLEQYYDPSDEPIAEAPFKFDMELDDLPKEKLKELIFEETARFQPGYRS
# Measurement Notes: Inhibition of Erk2
pIC50: −log10 of the molar value.
Assay Readout: pIC50

CC(C)(C)CN1CCC(NC(=O)c2csc(NC(=O)c3ccc4cc5n(c4c3)C3(CCC3)CNC5=O)n2)CC1    < 5.52

---

# Measurement Notes: Cmax in BALB/c mouse at 1.0 mg/kg, po
# Type: ADME, organism-based
# Parameters: dose 1 mg/kg, route oral
# Experimental Parameters: in vivo
Assay Readout: Cmax (nM)

CC(C)(C)CN1CCC(NC(=O)c2csc(NC(=O)c3ccc4cc5n(c4c3)C3(CCC3)CNC5=O)n2)CC1    60
CC1CNC(=O)c2[nH]c3ccc(C(=O)Nc4nc(C(=O)NC5CCCCC5)cs4)cc3c21 (stereo not drawn)    60
CC1CNC(=O)c2cc3ccc(C(=O)Nc4nc(C(=O)NC5CCCCC5)cs4)cc3n21 (stereo not drawn)    80
